EXPERIMENTAL TARGET: xanthurenic acid receptor
PROTOCOL NOTES: Competition protocol, IC50 determination against [3H]-XA binding on synaptic membranes
ASSAY CONTEXT: single value; inhibition of binding of 200 nM [3H]-XA, synaptic membranes; read-out: IC50
QUANTITY KIND: IC50
Write your answer as a measured quantity: the number, then the unit.

Observed IC50 on xanthurenic acid receptor, entry O=C(O)c1cc(O)c2cc(Br)cc(O)c2n1 , equals 12 µM

Observed IC50 on xanthurenic acid receptor, entry O=C(O)c1cc(O)c2cc(-c3ccccc3)cc(O)c2n1 [Compound 19f] , equals 5.2 µM

Observed IC50 on xanthurenic acid receptor, entry Nc1cccc2c(O)cc(C(=O)O)nc12 , equals 14.6 µM

Others:
Observed IC50 on xanthurenic acid receptor, entry O=C(O)c1cc(O)c2c(Cl)cc(Cl)c(O)c2n1 , equals 4.6 µM
